System: pulmonary hemorrhage induced by human neutrophil elastase (HNE)
Test: Inhibitory activity on pulmonary hemorrhage induced by human neutrophil elastase (HNE)
Format: in vivo
Details: Homo sapiens, Neutrophil, po; hamster, orally administered 30 minutes prior to intratracheal HNE; hemoglobin in bronchoalveolar lavage fluid after 1 hour
From the text: Experiment 3: Inhibitory Activity on Pulmonary Hemorrhage Induced by Human Neutrophil Elastase (HNE) This experiment tested on in vivo efficacy of the compound of the present invention. When human neutrophil elastase is intratracheally administered to a hamster, the pulmonary hemorrhage is induced. A definite time later after administration of the elastase, in the bronchoalveolar lavage fluid by washing lung via trachea, hemoglobin is detected. […]
Reported ED50 values are given for each entry in this list.
Just the number in mg/kg, nothing appended.

Cc1c(C(=O)N[C@H](C(=O)N2CCC[C@H]2C(=O)N[C@H](C(=O)C(F)(F)F)C(C)C)C(C)C)cnn1-c1ccccc1 [Example 10]	1.1

Lookup: Any idea what ED50 came out for CC(C)[C@H](NC(=O)c1noc2ccccc12)C(=O)N1CCC[C@H]1C(=O)N[C@H](C(=O)C(F)(F)F)C(C)C [Example 2] on pulmonary hemorrhage induced by human neutrophil elastase (HNE)?
Found: 0.86

Lookup: Any idea what ED50 came out for Cc1noc(C)c1C(=O)N[C@H](C(=O)N1CCC[C@H]1C(=O)N[C@H](C(=O)C(F)(F)F)C(C)C)C(C)C [Example 1] on pulmonary hemorrhage induced by human neutrophil elastase (HNE)?
Found: 2.6
